test: recombinant UMI read abundance after kanamycin selection (control-corrected) (log10(CPM+1)); higher = more efficient recombination; extreme values may be limits of the assay; sequences stand for … in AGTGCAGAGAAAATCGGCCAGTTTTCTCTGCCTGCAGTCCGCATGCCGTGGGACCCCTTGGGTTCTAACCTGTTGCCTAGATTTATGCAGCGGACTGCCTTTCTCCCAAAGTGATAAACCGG…AGGTTGGTTTCACT; site = the 11-nt donor;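 also: IS621 bridge recombinase in Escherichia coli cells against a fixed T5 target plasmid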
PROPERTY MEASURED: recombinant UMI read abundance (log10)

// below: answered sequences
| BIOPOLYMER SEQUENCE | PROPERTY MEASURED | RECORDED RESULT |
| --- | --- | --- |
| GGAAAGACATGGACCGGTTTTCCCGGTAATCCGTATTTGCC (site GGATAGACTGG) | recombinant UMI read abundance (log10) | 0 |
| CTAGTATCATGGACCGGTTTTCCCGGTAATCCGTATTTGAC (site CGTGTATCTGT) | recombinant UMI read abundance (log10) | 0 |

I'd like to know its recombinant UMI read abundance (log10). The sequence in question is GACACACCATGGACCGGTTTTCCCGGTAATCCGTATTTGGT (site GACAGACCTAC) 0.00253

I'd like to know its recombinant UMI read abundance (log10). The sequence in question is ATCCATGCATGGACCGGTTTTCCCGGTAATCCGTATTTGAG (site ATCCAAGCTCT) 0.0773

I'd like to know its recombinant UMI read abundance (log10). The sequence in question is GCGCCCTCATGGACCGGTTTTCCCGGTAATCCGTATTTGGC (site TGAAGTCCTCT) 0.0178

I'd like to know its recombinant UMI read abundance (log10). The sequence in question is GTGGAGGCATGGACCGGTTTTCCCGGTAATCCGTATTTGCG (site GTGGAGGCTCG) 2.28

I'd like to know its recombinant UMI read abundance (log10). The sequence in question is CGCCTTTCATGGACCGGTTTTCCCGGTAATCCGTATTTGAC (site GGCCTTTCTGT) 0

I'd like to know its recombinant UMI read abundance (log10). The sequence in question is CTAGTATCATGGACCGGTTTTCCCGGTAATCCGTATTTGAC (site CTAGTGTCTGC) 0

I'd like to know its recombinant UMI read abundance (log10). The sequence in question is AGCGTAGCATGGACCGGTTTTCCCGGTAATCCGTATTTGTT (site AGCATAGCTAA) 0.838
